Assay system: photosystem II (PS II) (Spinacia oleracea)
Construct: the chloroplasts were osmotically ruptured and the thylakoid membranes were then obtained by centrifugation; from tissue; host or cells: thylakoid membranes from fresh spinach leaves
Test details: Measurement of the PS II activity in thylakoid membranes (DCPIP reduction, Experimental Part 3, Table E1)
Format: biochemical
Run parameters: spinach thylakoid membranes
Measured quantity: Effect (inhibition of PS II activity)

CC1=CC(=O)N(c2cc(C(F)(F)F)c(Cl)cn2)C1O (centres unmarked): ++++ (inhibition≥90%)
CC1=CC(=O)N(c2cc(C(C)(C)C)no2)C1O (centres unmarked): ++++ (inhibition≥90%)
CC1=CC(=O)N(c2noc(C(C)(C)C)c2C)C1O (centres unmarked): ++++ (inhibition≥90%)
